Molecular target: E. feacalis DltA (Enterococcus faecalis, UniProt Q830N0)
Sequence (Q830N0 1-506): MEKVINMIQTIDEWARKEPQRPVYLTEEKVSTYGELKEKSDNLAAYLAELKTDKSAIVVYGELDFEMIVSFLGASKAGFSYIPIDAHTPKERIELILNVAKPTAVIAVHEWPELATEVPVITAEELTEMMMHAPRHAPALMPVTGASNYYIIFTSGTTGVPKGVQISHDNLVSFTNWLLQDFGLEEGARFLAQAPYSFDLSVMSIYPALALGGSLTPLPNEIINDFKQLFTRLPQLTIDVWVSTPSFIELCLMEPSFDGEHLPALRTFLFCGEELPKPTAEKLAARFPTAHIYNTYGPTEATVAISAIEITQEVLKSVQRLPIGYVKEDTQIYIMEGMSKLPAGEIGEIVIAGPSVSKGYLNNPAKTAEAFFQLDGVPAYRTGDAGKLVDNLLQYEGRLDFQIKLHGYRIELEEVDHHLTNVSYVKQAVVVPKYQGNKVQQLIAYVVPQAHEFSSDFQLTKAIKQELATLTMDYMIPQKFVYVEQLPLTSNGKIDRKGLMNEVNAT
Assay: in vitro DltA activity assay (luminescence), E. faecalis DltA
Assay type: biochemical
Settings: recombinant DltA, 30 min pre-incubation, 0.5 mM D-Alanine, 0.5-5 μM ATP; read-out: E. feacalis DltA IC50
pIC50: −log10 of the molar value.
Binary call on pIC50: Criterion met from 8 upward, Criterion not met beneath that.

input: Hi, just wondering whether `CN1CCC[C@@H]1COc1cc(-c2ccc3c(c2)ncn3C2CCCCC2)c2nc[nH]c2c1C(N)=O` shows pIC50 of 8 or higher.
output: Criterion met

input: Hi, just wondering whether `CN(C)CCCN(C)c1cc(-c2ccc3c(c2)ncn3C2CCCCC2)c2nc[nH]c2c1C(N)=O` shows pIC50 of 8 or higher.
output: Criterion not met

input: Hi, just wondering whether CN1CCCC1COc1cc(-c2cnc3c(c2)CCCO3)c2nc[nH]c2c1C(N)=O (centres unmarked) shows pIC50 of 8 or higher.
output: Criterion met

input: Hi, just wondering whether `CN1CCC[C@@H]1COc1cc(-c2cnc3c(c2)CCCO3)c2nc[nH]c2c1C(N)=O` shows pIC50 of 8 or higher.
output: Criterion met

input: Hi, just wondering whether `O=[N+]([O-])c1c(N2CC[C@H](CO)[C@@H](O)C2)cc(-c2ccc3c(c2)ncn3C2CCCCC2)c2nc[nH]c12` shows pIC50 of 8 or higher.
output: Criterion not met
